Numbers sourced from ChEMBL document CHEMBL3856264.

subject_of_test: UniProtKB Q12809
Sequence (Q12809 whole entry): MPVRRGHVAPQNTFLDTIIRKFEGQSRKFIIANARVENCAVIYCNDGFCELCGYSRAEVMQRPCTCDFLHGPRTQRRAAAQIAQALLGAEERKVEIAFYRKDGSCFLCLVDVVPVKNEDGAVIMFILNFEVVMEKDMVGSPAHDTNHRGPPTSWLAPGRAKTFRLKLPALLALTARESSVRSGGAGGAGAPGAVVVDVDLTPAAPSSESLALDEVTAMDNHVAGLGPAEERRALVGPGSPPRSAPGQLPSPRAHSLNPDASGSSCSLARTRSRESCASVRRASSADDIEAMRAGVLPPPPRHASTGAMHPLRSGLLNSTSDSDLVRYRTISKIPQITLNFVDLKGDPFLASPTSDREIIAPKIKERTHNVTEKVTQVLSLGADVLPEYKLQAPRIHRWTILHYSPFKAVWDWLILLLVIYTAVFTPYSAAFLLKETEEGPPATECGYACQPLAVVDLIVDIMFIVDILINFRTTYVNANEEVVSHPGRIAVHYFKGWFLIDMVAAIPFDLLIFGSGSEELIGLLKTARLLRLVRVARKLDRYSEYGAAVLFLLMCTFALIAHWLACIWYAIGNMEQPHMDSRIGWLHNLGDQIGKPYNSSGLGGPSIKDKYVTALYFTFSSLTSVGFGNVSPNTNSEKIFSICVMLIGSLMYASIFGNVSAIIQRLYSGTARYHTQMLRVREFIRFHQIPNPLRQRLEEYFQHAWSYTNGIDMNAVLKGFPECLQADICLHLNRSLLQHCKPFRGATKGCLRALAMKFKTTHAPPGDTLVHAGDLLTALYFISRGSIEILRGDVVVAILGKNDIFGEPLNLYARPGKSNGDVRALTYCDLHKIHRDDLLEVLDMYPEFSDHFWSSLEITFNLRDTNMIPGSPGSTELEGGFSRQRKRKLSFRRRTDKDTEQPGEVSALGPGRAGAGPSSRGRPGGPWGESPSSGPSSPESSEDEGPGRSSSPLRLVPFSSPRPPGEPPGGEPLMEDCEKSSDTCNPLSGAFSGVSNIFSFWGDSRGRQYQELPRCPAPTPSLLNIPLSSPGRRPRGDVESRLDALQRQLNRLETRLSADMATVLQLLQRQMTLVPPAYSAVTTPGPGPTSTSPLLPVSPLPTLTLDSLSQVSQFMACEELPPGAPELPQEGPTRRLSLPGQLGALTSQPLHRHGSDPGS
measure_name: IC50

// lookup IC50 for Cc1nc(C)c(-c2csc(Nc3ccc(C(=O)N4C5COCC4CC(=O)C5)cn3)n2)s1
> 30 µM

###

experiment_summary: Plasma concentration in FCA-induced guinea pig mechanical hyperalgesia model at 30 mg/kg, po after 1 hr
Format: ADME, organism-based, Cavia porcellus
measure_name: concentration at 1 h (ng/mL)
Just the number in ng/mL, nothing appended.

Name the recorded concentration at 1 h for Cc1nc(C)c(-c2csc(Nc3ccc(C(=O)N4C5COCC4CC(=O)C5)cn3)n2)s1 .
1940

###

subject_of_test: Transient receptor potential cation channel subfamily V member 4 (Homo sapiens, UniProt Q9HBA0)
Sequence (Q9HBA0 whole entry): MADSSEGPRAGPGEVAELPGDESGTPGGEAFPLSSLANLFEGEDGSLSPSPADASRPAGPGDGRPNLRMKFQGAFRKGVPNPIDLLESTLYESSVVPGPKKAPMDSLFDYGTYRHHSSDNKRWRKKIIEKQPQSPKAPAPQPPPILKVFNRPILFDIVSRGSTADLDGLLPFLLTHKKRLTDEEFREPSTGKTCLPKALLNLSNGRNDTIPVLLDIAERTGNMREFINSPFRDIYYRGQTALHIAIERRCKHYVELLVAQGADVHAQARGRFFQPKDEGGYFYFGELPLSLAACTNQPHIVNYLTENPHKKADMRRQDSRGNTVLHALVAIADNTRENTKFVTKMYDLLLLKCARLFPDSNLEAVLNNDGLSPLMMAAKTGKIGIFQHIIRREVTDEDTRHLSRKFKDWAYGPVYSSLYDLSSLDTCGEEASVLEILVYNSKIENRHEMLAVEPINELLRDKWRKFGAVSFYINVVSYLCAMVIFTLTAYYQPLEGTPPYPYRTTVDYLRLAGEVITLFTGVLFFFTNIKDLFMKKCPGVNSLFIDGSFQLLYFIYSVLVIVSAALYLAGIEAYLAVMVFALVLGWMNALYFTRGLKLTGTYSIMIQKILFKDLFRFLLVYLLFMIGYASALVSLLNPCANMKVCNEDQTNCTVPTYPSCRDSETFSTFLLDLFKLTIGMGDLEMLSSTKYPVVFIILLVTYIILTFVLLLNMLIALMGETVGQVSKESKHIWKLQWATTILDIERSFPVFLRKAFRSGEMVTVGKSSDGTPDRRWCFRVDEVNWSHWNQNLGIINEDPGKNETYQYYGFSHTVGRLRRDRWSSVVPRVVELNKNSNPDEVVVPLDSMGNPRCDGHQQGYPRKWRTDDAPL
experiment_summary: Antagonist activity at human recombinant TRPV4 expressed in CHO-K1 cells assessed as blockade of 1000 nM 4alphaPDD-induced calcium mobilization by FLIPR assay
Type: cell-based
In this section we review reported pIC50 values for a set of compounds.
Expect pIC50 as a plain number equal to -log10 of the molar concentration.

Use these answered entries as a reference point.
{"compound": "Cc1nc(C)c(-c2csc(Nc3ccc(C(=O)N4C(C)CCCC4C)cn3)n2)s1 (stereo not drawn)", "pIC50": 8.20}
{"compound": "Cc1nc(C)c(-c2csc(Nc3ccc(Br)cc3)n2)s1", "pIC50": 7.47}
{"compound": "Cc1nc(C)c(-c2csc(Nc3ccc(C#N)cn3)n2)s1", "pIC50": 7.66}

Bench note: what pIC50 did Cc1nc(C)c(-c2csc(Nc3ccc(S(=O)(=O)Nc4ccc(Cl)cc4)cn3)n2)s1 show?
6.54

// query: COc1cccc(Nc2nc(-c3sc(C)nc3C)cs2)n1
7.64

Now this one: Cc1nc(C)c(-c2csc(Nc3ncccn3)n2)s1
5.00

What would you report for Cc1nc(C)c(-c2csc(Nc3ccccn3)n2)s1 ?
8.00

Try this compound too: Cc1nc(C)c(-c2csc(Nc3cccnc3)n2)s1
6.31

Here is the next compound: COc1ccc(Nc2nc(-c3sc(C)nc3C)cs2)nc1
7.46

And then Cc1nc(C)c(-c2csc(Nc3cccc(C#N)n3)n2)s1 , what is it?
7.00

Same read-out for Cc1nc(C)c(-c2csc(Nc3ccccc3)n2)s1 ?
7.51

// query: COc1ccnc(Nc2nc(-c3sc(C)nc3C)cs2)c1
6.39

Param item: Cc1nc(C)c(-c2csc(Nc3ccc(C(=O)N4CCC(=O)CC4)cn3)n2)s1
6.21

Entry CCOC(=O)c1ccc(Nc2nc(-c3sc(C)nc3C)cs2)nc1 please
7.96

Try the compound Cc1nc(C)c(-c2csc(Nc3ccc(C(=O)Nc4ccc(Cl)cc4)cn3)n2)s1
8.02

Param item: Cc1nc(C)c(-c2csc(Nc3ncccc3C#N)n2)s1
5.37

Further, for Cc1nc(C)c(-c2csc(Nc3ccc(C(=O)N(C)c4ccc(Cl)cc4)cn3)n2)s1 ?
7.30

Can you handle Cc1nc(C)c(-c2csc(Nc3ccc(C(=O)NC4CCCCC4)cn3)n2)s1 next?
7.54

And Cc1nc(C)c(-c2csc(Nc3ccc(C(=O)N4CCCCC4)cn3)n2)s1 ?
7.43

###

experiment_summary: Oral bioavailability in guinea pig at 1 mg/kg
Format: ADME, organism-based, Cavia porcellus
study_conditions: in vivo
measure_name: bioavailability (%)
State just the number; it will be interpreted in %.

I'd like to know its bioavailability. The compound in question is Cc1nc(C)c(-c2csc(Nc3ccc(C(=O)N4C5COCC4CC(=O)C5)cn3)n2)s1
38.6
